Source of measurements: patent US20230348614A1

# TARGET UNDER TEST: T1, Recombinant soluble human CD138 extracellular domain (analyte in SPR) (human, UniProt P18827 23-254)
# T1 construct: extracellular domain; also called recombinant CD138 (the antigen)
# T1 sequence (looked up): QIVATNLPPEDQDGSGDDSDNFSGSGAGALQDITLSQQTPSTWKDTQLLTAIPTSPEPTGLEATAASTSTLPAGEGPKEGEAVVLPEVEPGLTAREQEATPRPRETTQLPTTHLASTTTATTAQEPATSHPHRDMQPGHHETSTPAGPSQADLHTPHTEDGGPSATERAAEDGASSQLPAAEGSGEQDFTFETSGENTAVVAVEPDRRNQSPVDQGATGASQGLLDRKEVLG
# PROTOCOL: SPR (Carterra LSA): antibody captured by anti-human IgG, CD138 as analyte, pH 6.0, 1:1 fit; pH 6.0, SPR
pKd: −log10 of the molar value.
Here the recorded pKd is given for each entry.

BINDER	pKd
Antibody 29-0 (antibody, V domains shown, also called mAb 29-0) VH: EVQLVQSGAEVKKPGASVKVSCKASGYSFSSYYMHWVRQAPGQGLEWMGTIYPGASTTNYNQKFQGRVTMTVDTSTRTAYMELSSLRSEDTAVYYCADFVYWGQGTTVTVSS VL: DIVMTQTPLSLSVTPGQPASISCKSSKSLLYKDGKTYLNWFLQKPGQSPQLLIYVVSTRASGVPDRFSGSGSGTDFTLKISRVEAEDVGVYYCQQLVEYPYTFGQGTKLEIK	7.55
Antibody Ab28 (antibody, V domains shown, also called Mab 28) VH: EVQLVQSGAEVKKPGASVKVSCKASGYSFSSYYMHWVRQAPGQGLEWMGTIYPGDSTTNYNQKFQGRVTMTVDTSTRTAYMELSSLRSEDTAVYYCADFVYWGQGTTVTVSS VL: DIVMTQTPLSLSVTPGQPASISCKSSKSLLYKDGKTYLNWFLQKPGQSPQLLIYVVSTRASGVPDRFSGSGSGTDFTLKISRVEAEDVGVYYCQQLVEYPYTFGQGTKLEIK	7.92
Antibody Ab17 (antibody, V domains shown, also called mAb 17; Mab 17) VH: EVQLVQSGAEVKKPGASVKVSCKASGYSFSSYYMHWVRQAPGQGLEWMGTIHPSDSTTNYNQKFQGRVTMTVDTSTRTAYMELSSLRSEDTAVYYCADFVYWGQGTTVTVSS VL: DIVMTQTPLSLSVTPGQPASISCKSSKSLLYKDGHTYLNWFLQKPGQSPQLLIYVVSTRASGVPDRFSGSGSGTDFTLKISRVEAEDVGVYYCQQLVEYPYTFGQGTKLEIK	7.80
Antibody Ab137 (antibody, V domains shown) VH: QVQLVQSGAEVKKPGASVKVSCKASGYSFSSYYMHWVRQAPGQGLEWMGTIHPSDSTTNYNQKFQGRVTMTVDTSTRTAYMELSSLRSEDTAVYYCANFVYWGQGTTVTVSS VL: DIVMTQTPLSLSVTPGQPASISCKSSKSLLYKDGKTYLNWFLQKPGQSPQLLIDVVSTRASGVPDRFSGSGSGTDFTLKISRVEAEDVGVYYCQQLVEYPYTFGQGTKLEIK	7.80
